# Target entity: Protein kinase C (PKC)
# Assay info: Protein kinase C assay (96-well, H1 histone phosphorylation, 32P-ATP)
# Condition set: PKC partially purified from rat brain; H1 histone 200 μg, 50 μM ATP, 5-7 min, room temperature; estimated error of IC50 less than 10%
Structures can show the parent of a compound that is named as a salt.
Reported property: IC50 (µM)

Guide cases for IC50, answers given:
1. CCN(CC)CCOc1cccc2c1-c1c(OC)cccc1C2=O [I.D. No. 104,652] ... 1
2. CCCOc1cc(OC)c2c(c1N)C(=O)c1cccc(OCCN3CCOCC3)c1-2 [I.D. No. 104,427, hydrochloride] ... 2.3
3. CCN(CC)CCOc1ccc2c(c1)-c1c(OCCN(CC)CC)cccc1C2=O [I.D. No. 104,004] ... 4
4. CN(C)CCCOc1ccc2c(c1)C(=O)c1cccc(OCCCN(C)C)c1-2 [I.D. No. 102,352] ... 50
5. CCN(CC)CCOc1cccc2c1-c1ccc(OC)cc1C2=O [I.D. No. 103,949] ... 7
6. CCN(CC)CCOc1cccc2c1-c1c(OCCN(CC)CC)cccc1C2=O [I.D. No. 104,488] ... 92
7. CCCOc1ccc2c(c1)C(=O)c1cccc(OCCN(CC)CC)c1-2 [I.D. No. 103,049] ... 9

P = CCCOc1cc(OC)c2c(c1)C(=O)c1cccc(OCCN(CC)CC)c1-2 [I.D. No. 104,952]
Q = CCN(CC)CCCOc1cccc2c1-c1ccc(OC)cc1C2=O [I.D. No. 103,388]
R = CN(C)CCOc1ccc2c(c1)C(=O)c1cccc(OCCN(C)C)c1-2 [I.D. No. 101,209]
S = CCN(CC)CCOc1cccc2c1-c1c(OC)cc(OC)c(N)c1C2=O [I.D. No. 105,473, hydrochloride]
T = CCN(CC)CCOc1ccc2c(c1)C(=O)c1cccc(OCCN(CC)CC)c1-2 [I.D. No. 11,080]
Q) Ordering: ascending IC50. Rank the items, then write their labels in that order.
A) S, P, T, R, Q
(S: 0.16 µM, P: 0.576 µM, T: 3 µM, R: 11 µM, Q: 56 µM)
